test: Lipophilicity of the compound assessed as retention time by RP-18-HPLC analysis; format: physicochemical
Retention_time listing for selected molecules.
State just the number; it will be interpreted in min.

See these solved cases before continuing.
>>> reportedmeasurement("CCCCCCCCCCCCCCCCCCP(=O)(OCc1ccc(OC(=O)CCCC)cc1)OP(=O)(O)OP(=O)(O)OP(=O)(O)OC[C@@H]1C=C[C@H](n2cc(C)c(=O)[nH]c2=O)O1 (some centres undefined)")
15.2
>>> reportedmeasurement("CCCCCCCCCCCCCCCCOC(=O)Oc1ccc(COP(=O)(OCc2ccc(OC(=O)CCCC)cc2)OP(=O)(O)OP(=O)(O)OP(=O)(O)OC[C@@H]2C=C[C@H](n3cc(C)c(=O)[nH]c3=O)O2)cc1 (some centres undefined)")
16
>>> reportedmeasurement("CCCCOP(=O)(OCCCC)OP(=O)(O)OP(=O)(O)OP(=O)(O)OC[C@@H]1C=C[C@H](n2cc(C)c(=O)[nH]c2=O)O1")
10.2
>>> reportedmeasurement("CCCCCCCCCCCCCCCCCCOP(=O)(O)OP(=O)(O)OP(=O)(O)OP(=O)(O)OC[C@@H]1C=C[C@H](n2cc(C)c(=O)[nH]c2=O)O1")
13.3
>>> reportedmeasurement("CCCCCCCCCCCCCCCCCCOP(=O)(OCCCCCCCCCCCCCCCCCC)OP(=O)(O)OP(=O)(O)OP(=O)(O)OC[C@@H]1C=C[C@H](n2cc(C)c(=O)[nH]c2=O)O1")
20.7
>>> reportedmeasurement("CCCCCCCCCCCCCCCCCCP(=O)(OCCCC)OP(=O)(O)OP(=O)(O)OP(=O)(O)OC[C@@H]1C=C[C@H](n2cc(C)c(=O)[nH]c2=O)O1 (some centres undefined)")
14.4
>>> reportedmeasurement("CCCCCCCCCCCCCCCCCCP(=O)(O)OP(=O)(O)OP(=O)(O)OP(=O)(O)OC[C@@H]1C=C[C@H](n2cc(C)c(=O)[nH]c2=O)O1")
13.2
>>> reportedmeasurement("CCCCCCCCCCCCCCCCCCOP(=O)(OCC(CC)CCCC)OP(=O)(O)OP(=O)(O)OP(=O)(O)OC[C@@H]1C=C[C@H](n2cc(C)c(=O)[nH]c2=O)O1 (some centres undefined)")
15.2

### Prompt Which Retention_time reading was recorded for the molecule Cc1cn([C@H]2C=C[C@@H](COP(=O)(O)OP(=O)(O)OP(=O)(O)OP(=O)(O)O)O2)c(=O)[nH]c1=O ?
### Response 10.2
